- experimental_system: T1, His-tagged human HtrA1 protease domain (human, UniProt Q92743 161-367)
- T1 construct: His-tagged protease domain; also called huHtrA1-PD-His; huHtrA1-PD
- T1 sequence (Q92743 other isoform, or with tags, fused parts or gaps limits assumed): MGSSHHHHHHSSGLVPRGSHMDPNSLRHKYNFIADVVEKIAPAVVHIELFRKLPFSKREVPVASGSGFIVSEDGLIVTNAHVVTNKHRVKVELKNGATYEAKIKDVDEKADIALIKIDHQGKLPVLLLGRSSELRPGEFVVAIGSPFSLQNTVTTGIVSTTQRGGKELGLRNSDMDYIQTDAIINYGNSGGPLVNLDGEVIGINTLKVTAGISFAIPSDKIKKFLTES
- experimental_protocol: SPR (BIACORE T200), huHtrA1-PD-His captured by anti-His, Fab injected
recorded_endpoint: kon (M⁻¹ s⁻¹)

INSERT INTO results (binder, reported) VALUES
  ('h15H6.v2 variant HC2 (HC-T30R) Fab (Fab, V domains shown, Fab-Flag tag fusion from 293T cells) VH: EVQLVQSGAEVKKPGASVKVSCKASGYTFRDSEMHWVRQAPGQGLEWIGGVDPETDGAAYNQKFKGRATITRDTSTSTAYLELSSLRSEDTAVYYCTRGYDYDYALDYWGQGTLVTVSS VL: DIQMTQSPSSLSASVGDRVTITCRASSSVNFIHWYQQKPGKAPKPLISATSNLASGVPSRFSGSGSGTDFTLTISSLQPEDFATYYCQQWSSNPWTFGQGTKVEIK', 366000),
  ('h15H6.v2 Fab (Fab, V domains shown, Tested as Fab; also called parent; parental Fab) VH: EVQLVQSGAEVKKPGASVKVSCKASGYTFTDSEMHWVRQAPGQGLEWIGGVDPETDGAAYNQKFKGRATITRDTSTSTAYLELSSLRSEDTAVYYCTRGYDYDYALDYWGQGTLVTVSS VL: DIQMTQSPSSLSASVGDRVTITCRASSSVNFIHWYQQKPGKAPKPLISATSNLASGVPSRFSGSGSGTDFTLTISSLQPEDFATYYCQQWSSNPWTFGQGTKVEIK', 722000);
